Every entry's value here was drawn from patent US9006450B2.

# EXPERIMENTAL_SYSTEM: human ACC2 (Homo sapiens)
# Construct: made in house; host or cells: insect cells (baculoviral expression system)
# METHOD_SUMMARY: ACC2 assay, spectrophotometric 384 well assay (NADH-linked, coupled lactate dehydrogenase/pyruvate kinase)
# Format: biochemical
# CONDITION_DETAILS: ACC2 assay, hACC2 construct lacking 128 N-terminal amino acids, 25° C., 340 nm; read-out: IC50
Decide using IC50 alone. Strictly below 800 nM: criterion met. Equal to or above 800 nM: criterion not met.

Solved cases below.
# ENTRY_SMILES, ASSIGNED_CLASS
rows = [
    ("COCCOc1cc(N2CCC(c3ccc([C@H](C)NC(C)=O)cc3)CC2)ccn1", "criterion met"),
    ("CC(=O)N[C@@H](C)c1ccc(C2CCN(c3ccnc(OCc4ccccc4)n3)CC2)cc1", "criterion not met"),
    ("CC(=O)N[C@@H](C)c1ccc(C2CCN(c3ccc(OC4CCCC4)c(F)c3)CC2)cc1", "criterion met"),
]

Note: attention shifts to another entry.
Exercise: Given CC(=O)N[C@@H](C)c1ccc(C2CCN(c3nc(-c4ccccc4)cs3)CC2)cc1 , is recorded IC50 strictly lower than 800 nM?
Key: criterion not met

---

# EXPERIMENTAL_SYSTEM: human ACC2 (Homo sapiens)
# Construct: made in house; host or cells: insect cells (baculoviral expression system)
# METHOD_SUMMARY: ACC2 assay, spectrophotometric 384 well assay (NADH-linked, coupled lactate dehydrogenase/pyruvate kinase)
# Format: biochemical
# CONDITION_DETAILS: ACC2 assay, hACC2 construct lacking 128 N-terminal amino acids, 25° C., 340 nm; read-out: IC50
Entries and their pIC50
The meaning of pIC50 here: minus log10 of the concentration in molar units.

Exercise: // query pIC50 value for entry CSc1ccc(-c2cnc(N3CCC(c4ccc([C@H](C)NC(C)=O)cc4)CC3)nc2)cc1
Key: 6.74

Exercise: Now consider CC(=O)N[C@@H](C)c1ccc(C2CCN(c3ncc(C(=O)NCC(N)=O)cn3)CC2)cc1 .
Key: 4.76

Exercise: Now consider CC(=O)N[C@@H](C)c1ccc(C2CCN(c3ncc(-c4ccc5c(c4)CCCO5)cn3)CC2)cc1 .
Key: 6.46

Exercise: Now consider CC(=O)N[C@@H](C)c1ccc(C2CCN(c3ccnc(N(C)Cc4ccccc4)n3)CC2)cc1 .
Key: 6.39

Exercise: Now consider CCCOc1ccnc(N2CCC(c3ccc([C@H](C)NC(C)=O)cc3)CC2)c1 .
Key: 6.38

Exercise: Now consider CC(=O)N[C@@H](C)c1ccc(C2CCN(c3ncc(C(=O)N(C)CCN(C)C)cn3)CC2)cc1 .
Key: 4.77

---

Entries and their pIC50
# EXPERIMENTAL_SYSTEM: human ACC2 (Homo sapiens, UniProt O00763)
# Construct: made in house; host or cells: insect cells (baculoviral expression system)
# Sequence (O00763 129-2458 limits assumed): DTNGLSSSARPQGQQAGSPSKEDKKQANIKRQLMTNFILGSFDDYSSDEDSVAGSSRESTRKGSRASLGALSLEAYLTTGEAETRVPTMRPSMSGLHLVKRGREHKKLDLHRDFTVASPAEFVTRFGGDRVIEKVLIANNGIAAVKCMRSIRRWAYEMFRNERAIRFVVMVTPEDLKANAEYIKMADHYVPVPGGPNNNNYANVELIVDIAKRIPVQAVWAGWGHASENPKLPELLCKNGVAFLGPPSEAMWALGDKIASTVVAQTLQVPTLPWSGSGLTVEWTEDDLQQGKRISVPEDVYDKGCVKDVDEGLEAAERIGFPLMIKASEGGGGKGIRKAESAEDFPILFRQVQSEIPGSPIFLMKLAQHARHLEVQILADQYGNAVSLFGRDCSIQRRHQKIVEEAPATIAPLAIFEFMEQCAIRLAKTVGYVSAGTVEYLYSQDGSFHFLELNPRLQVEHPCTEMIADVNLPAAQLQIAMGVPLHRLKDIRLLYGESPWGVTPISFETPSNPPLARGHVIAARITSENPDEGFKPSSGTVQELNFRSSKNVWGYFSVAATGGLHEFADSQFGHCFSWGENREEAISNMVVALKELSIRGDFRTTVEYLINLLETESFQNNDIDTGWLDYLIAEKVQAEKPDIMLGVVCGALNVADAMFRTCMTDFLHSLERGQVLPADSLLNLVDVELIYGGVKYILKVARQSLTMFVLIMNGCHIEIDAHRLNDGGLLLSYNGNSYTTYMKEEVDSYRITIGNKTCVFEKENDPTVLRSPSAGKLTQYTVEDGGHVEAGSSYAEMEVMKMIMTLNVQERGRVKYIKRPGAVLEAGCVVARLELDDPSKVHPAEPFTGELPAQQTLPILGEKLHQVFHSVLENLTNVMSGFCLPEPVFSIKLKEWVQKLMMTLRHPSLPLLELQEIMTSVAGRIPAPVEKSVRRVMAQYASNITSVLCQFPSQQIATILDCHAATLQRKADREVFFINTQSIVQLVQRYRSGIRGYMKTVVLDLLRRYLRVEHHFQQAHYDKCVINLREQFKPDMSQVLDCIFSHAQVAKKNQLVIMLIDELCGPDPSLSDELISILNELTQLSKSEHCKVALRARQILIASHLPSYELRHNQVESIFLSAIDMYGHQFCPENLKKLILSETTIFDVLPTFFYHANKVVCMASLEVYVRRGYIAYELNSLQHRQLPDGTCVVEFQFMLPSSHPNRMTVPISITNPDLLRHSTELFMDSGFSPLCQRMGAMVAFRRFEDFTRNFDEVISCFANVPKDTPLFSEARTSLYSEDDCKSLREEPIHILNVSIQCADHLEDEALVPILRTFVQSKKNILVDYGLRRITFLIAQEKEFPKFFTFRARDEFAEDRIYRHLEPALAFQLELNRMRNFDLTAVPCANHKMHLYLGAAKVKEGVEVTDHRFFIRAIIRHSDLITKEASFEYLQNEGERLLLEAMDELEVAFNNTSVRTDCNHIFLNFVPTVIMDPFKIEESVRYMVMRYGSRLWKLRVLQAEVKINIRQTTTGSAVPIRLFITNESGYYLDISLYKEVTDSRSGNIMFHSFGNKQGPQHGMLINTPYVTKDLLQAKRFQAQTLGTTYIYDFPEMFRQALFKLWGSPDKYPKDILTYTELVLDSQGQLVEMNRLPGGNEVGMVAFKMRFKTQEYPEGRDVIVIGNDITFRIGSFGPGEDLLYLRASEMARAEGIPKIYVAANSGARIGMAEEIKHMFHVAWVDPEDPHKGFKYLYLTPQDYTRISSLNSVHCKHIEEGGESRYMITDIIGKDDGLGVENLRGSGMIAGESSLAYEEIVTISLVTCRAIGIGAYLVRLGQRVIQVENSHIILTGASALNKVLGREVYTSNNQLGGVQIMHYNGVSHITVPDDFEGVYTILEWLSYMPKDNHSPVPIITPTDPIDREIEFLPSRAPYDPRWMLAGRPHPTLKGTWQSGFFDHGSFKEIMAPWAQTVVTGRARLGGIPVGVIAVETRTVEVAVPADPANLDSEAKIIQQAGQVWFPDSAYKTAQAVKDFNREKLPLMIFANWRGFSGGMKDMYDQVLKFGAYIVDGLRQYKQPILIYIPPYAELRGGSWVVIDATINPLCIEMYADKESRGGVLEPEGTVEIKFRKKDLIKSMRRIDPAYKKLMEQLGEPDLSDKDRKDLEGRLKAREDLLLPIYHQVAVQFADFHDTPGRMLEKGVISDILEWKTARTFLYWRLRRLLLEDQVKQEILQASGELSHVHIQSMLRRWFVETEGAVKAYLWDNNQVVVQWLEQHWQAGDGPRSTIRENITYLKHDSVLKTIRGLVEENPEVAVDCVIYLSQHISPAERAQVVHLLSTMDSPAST
# METHOD_SUMMARY: ACC2 assay, spectrophotometric 384 well assay (NADH-linked, coupled lactate dehydrogenase/pyruvate kinase)
# Assay type: biochemical
# CONDITION_DETAILS: ACC2 assay, hACC2 construct lacking 128 N-terminal amino acids, 25° C., 340 nm; read-out: IC50
The meaning of pIC50 here: minus log10 of the concentration in molar units.

# MOLECULE, OUTCOME_MEASURE, ASSAY_VALUE
rows = [
    ("CC(=O)N[C@@H](C)c1ccc(C2CCN(c3ccc(OCC(C)C)cn3)CC2)cc1 [Example 5.4]", "pIC50", 7.05),
    ("CCCOc1cccc(N2CCC(c3ccc([C@H](C)NC(C)=O)cc3)CC2)c1 [Example 1.89]", "pIC50", 6.41),
    ("CCCOc1cnc(N2CCC(c3ccc([C@H](C)NC(C)=O)cc3)CC2)c(F)c1 [Example 1.105]", "pIC50", 6.62),
    ("CC(=O)N[C@@H](C)c1ccc(C2CCN(c3ccnc(O[C@H]4CCOC4)c3)CC2)cc1 [Example 19.16]", "pIC50", 6.57),
    ("CC(=O)N[C@@H](C)c1ccc(C2CCN(c3ccc(OCC(C)C)c(C)c3)CC2)cc1 [Example 8.26]", "pIC50", 6.08),
]

Please examine the following record next.
Exercise: // query pIC50 value for entry CC(=O)N[C@@H](C)c1ccc(C2CCN(c3ccnc(Oc4cncnc4)c3)CC2)cc1 [Example 3.5]
Key: 6.23
